Assayed target: T1, human IFN-ω (human, UniProt P05000 24-195)
T1 construct: also called interferon omega
Protocol summary: ProteOn, one antigen concentration
Kd values for the binders below.
Give the number; nM is assumed, so skip it.

Reference set, count: 2
INSERT INTO measurements (binder, assay_endpoint, units_of_measure, numeric_value) VALUES
  ('IFWM3310 (antibody, V domains shown, VH IFWH591, VL IFWL1007; converted mAb; also called IFWB3045) VH: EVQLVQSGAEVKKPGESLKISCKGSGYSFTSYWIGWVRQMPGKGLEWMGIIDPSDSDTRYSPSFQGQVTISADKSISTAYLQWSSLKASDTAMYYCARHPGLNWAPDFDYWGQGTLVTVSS VL: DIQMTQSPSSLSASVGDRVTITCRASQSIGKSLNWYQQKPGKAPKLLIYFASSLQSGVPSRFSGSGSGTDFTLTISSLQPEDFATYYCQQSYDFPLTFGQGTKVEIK', 'Kd', 'nM', 0.065),
  ('IFWM3335 (antibody, V domains shown, VH IFWH591, VL IFWL1084; converted mAb; also called IFWB3070) VH: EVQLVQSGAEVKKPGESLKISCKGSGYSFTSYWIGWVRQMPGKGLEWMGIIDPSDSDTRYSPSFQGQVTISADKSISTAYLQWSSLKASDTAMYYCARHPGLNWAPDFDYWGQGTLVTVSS VL: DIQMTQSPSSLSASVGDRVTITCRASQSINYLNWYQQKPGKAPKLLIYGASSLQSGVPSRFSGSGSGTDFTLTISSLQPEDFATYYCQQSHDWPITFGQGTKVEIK', 'Kd', 'nM', 0.042);

Data request: Which Kd is reported for this binder? IFWM3315 (antibody, V domains shown, VH IFWH591, VL IFWL1017; converted mAb; also called IFWB3050) VH: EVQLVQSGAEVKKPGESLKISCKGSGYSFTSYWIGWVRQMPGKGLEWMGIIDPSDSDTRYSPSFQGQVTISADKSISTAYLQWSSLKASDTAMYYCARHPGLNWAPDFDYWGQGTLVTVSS VL: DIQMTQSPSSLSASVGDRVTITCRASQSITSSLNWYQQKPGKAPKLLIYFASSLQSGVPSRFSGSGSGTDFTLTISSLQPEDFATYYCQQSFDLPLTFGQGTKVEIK
Data returned: 0.063

Data request: Entry to check: IFWM3329 (antibody, V domains shown, VH IFWH591, VL IFWL1067; converted mAb; also called IFWB3064) VH: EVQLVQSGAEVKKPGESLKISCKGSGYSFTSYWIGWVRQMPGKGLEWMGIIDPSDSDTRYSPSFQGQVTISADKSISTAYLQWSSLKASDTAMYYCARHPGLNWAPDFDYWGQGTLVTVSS VL: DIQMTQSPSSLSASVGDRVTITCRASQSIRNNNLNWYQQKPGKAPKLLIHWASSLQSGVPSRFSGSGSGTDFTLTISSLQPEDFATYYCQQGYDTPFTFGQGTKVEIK
Data returned: 0.059

Data request: Entry to check: IFWM3333 (antibody, V domains shown, VH IFWH591, VL IFWL1076; converted mAb; also called IFWB3068) VH: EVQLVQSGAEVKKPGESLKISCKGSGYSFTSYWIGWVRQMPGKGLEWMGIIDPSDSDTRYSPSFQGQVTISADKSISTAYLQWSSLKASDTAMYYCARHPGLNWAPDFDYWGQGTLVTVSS VL: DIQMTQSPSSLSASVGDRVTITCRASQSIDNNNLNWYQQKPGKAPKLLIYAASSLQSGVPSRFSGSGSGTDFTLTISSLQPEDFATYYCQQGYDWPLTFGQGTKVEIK
Data returned: 0.053

These entries and their values trace back to patent US20150368338A1.
